target: UniProtKB P19327
Sequence (P19327 whole entry): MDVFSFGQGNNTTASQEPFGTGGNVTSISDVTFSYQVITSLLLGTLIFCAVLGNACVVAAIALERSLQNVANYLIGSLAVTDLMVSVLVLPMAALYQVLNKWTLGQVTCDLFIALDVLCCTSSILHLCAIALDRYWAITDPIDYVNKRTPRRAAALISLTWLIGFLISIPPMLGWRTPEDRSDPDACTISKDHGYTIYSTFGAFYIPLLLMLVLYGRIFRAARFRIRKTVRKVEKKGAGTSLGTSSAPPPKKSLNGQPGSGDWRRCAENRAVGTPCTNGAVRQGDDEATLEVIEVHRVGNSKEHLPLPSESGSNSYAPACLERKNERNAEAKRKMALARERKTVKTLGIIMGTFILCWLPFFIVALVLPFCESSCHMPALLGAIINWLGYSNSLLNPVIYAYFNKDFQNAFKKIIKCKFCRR
endpointName: pIC50
Please keep in mind that pIC50 is minus log10 of the molar concentration; only the number is needed.

Q. Name the reported pIC50 value associated with the molecule COc1ccccc1N1CCN(CCNC(=O)C2CCCCC2)CC1
A. 8.37

Q. Name the reported pIC50 value associated with the molecule CCCN(CCC)C1CCc2cccc(SC)c2C1 (racemic)
A. 8.92

Q. Name the reported pIC50 value associated with the molecule COc1ccccc1N1CCN(CCNC(=O)C2CC3CCC2CC3)CC1 (stereo not drawn)
A. 9.00

* * *

molecular target: 5-hydroxytryptamine receptor 2C (Homo sapiens, UniProt P28335); assay: Displacement of [3H]-mesulergine from 5-HT2C (unknown origin) assessed as inhibition constant by radioligand competitive binding assay
Sequence (P28335 whole entry): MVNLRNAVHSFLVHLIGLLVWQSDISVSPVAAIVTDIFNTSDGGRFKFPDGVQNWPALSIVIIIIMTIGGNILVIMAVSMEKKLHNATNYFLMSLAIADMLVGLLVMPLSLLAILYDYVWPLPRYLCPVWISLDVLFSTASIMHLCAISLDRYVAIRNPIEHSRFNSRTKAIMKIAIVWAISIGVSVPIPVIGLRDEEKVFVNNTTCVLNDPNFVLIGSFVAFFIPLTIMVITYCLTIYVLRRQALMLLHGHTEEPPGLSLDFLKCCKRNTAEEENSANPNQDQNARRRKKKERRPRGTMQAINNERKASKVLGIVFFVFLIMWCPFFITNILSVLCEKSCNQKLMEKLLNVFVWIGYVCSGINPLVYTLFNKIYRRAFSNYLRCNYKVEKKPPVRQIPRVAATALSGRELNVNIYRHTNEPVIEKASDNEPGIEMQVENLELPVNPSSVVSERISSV
endpointName: Ki (nM)
Report only the number, with the unit nM understood.

Q. Name the reported Ki value associated with the molecule [11CH3]N1CCc2nc3ccnn3c(N3CCC3)c2CC1
A. 75

* * *

target: 5-hydroxytryptamine receptor 1A (Homo sapiens, UniProt P08908)
Sequence (P08908 whole entry): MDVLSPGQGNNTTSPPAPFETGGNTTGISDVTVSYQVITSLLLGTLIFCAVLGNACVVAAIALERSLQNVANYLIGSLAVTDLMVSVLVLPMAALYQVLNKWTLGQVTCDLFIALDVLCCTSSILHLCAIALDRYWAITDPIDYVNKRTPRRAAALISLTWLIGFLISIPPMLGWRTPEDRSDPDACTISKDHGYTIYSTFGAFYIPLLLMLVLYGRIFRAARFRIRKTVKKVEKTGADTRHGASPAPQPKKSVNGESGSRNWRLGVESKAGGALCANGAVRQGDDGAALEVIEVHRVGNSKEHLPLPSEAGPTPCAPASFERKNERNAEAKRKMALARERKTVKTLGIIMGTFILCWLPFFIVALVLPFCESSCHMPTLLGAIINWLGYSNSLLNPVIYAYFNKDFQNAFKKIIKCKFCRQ
endpointName: Ki
Write your answer as a measured quantity: the number, then the unit.

Q. Name the reported Ki value associated with the compound O=C(C1CCCCC1)N(CCN1CCN(c2ccccc2O)CC1)c1ccccn1
A. 1.4 nM

Q. Name the reported Ki value associated with the compound CCCN(CCC)C1CCc2ccc3[nH]cc(C=O)c3c2C1 (stereo not given)
A. 1.2 nM

Q. Name the reported Ki value associated with the compound COc1cccc(N2CCN(CCCCn3ncc(=O)n(C)c3=O)CC2)c1
A. 0.15 nM

Q. Name the reported Ki value associated with the compound COc1ccccc1N1CCN(CCCCc2ccc3c(c2)oc(=O)n3C)CC1
A. 0.04 nM

Q. Name the reported Ki value associated with the compound COc1ccccc1N1CCN(CC(C)N(c2ccccn2)[11C](=O)C2CCCCC2)CC1 (racemic)
A. 0.91 nM

Q. Name the reported Ki value associated with the compound CCCN(CCCSC)C1CCc2cccc(O)c2C1 (racemic)
A. 0.19 nM

Q. Name the reported Ki value associated with the compound [11CH3]Sc1cccc(C(=O)NC[C@H]2CCCN2CCc2ccccc2)c1
A. 160 nM

Q. Name the reported Ki value associated with the compound Cc1cnc(CNCC2(F)CCN(C(=O)c3ccc([18F])c(Cl)c3)CC2)nc1
A. 2.24 nM

Q. Name the reported Ki value associated with the compound CCCN(CCCCC1C(=O)CC2(CCCC2)CC1=O)[C@H]1CCc2cccc(OC)c2C1
A. 0.9 nM

Q. Name the reported Ki value associated with the compound [11CH3]Oc1ccc2cccc(N3CCN(CCNC(=O)c4ccc(F)cc4)CC3)c2c1
A. 0.98 nM

Q. Name the reported Ki value associated with the compound COc1ccccc1N1CCN(CC[C@@H](C(=O)N2CCCCCC2)c2ccccc2)CC1
A. 0.6 nM

Q. Name the reported Ki value associated with the compound O=C(NCCN1CCN(c2cccc(C(F)(F)F)n2)CC1)c1ccc(F)cc1
A. 0.5 nM

Q. Name the reported Ki value associated with the compound O=C(NCCN1CCN(C2CCCc3ccccc32)CC1)c1ccc([18F])cc1 (stereo not given)
A. 0.5 nM

Q. Name the reported Ki value associated with the compound COc1ccccc1N1CCN(CCN(c2ccccn2)C(=O)[C@H]2CC[C@H](C[18F])CC2)CC1
A. 0.9 nM

Q. Name the reported Ki value associated with the compound [11CH3]Oc1ccccc1N1CCN(CCCN/C(=N\C#N)c2ccccn2)CC1
A. 0.8 nM
